Here, each record is paired with measured pIC50 data.
target: human S1P3 receptor (Homo sapiens (Human)); assay: Activation or block of activation of human S1P3 receptor, Ca+2 FLIPR assay; type: cell-based; conditions: T24 cells stably expressing the human S1P3 receptor; FLIPR Ca+2 response; 0.61 nM to 10,000 nM; read-out: S1P3 IC50
# pIC50: negative log10 of molar concentration; output just the value

Guide cases for pIC50, answers given:
compound	assayed-system	pIC50
CCOC(=O)c1ccc2c(C(=O)NCc3ccc(F)c(F)c3)c(C(C)C)n(Cc3ccccc3)c2c1	human S1P3 receptor (Homo sapiens (Human))	8.15
CC(C)Cn1c(C(C)C)c(C(=O)NCc2ccc(F)c(F)c2)c2ccc(OC3CCCC3)cc21	human S1P3 receptor (Homo sapiens (Human))	7.39
C#CCOc1ccc2c(C(=O)NCc3ccc(F)c(F)c3)c(C(C)C)n(Cc3ccccn3)c2c1	human S1P3 receptor (Homo sapiens (Human))	6.49

Query: API: value(readout=pIC50, system=human S1P3 receptor (Homo sapiens (Human))) for record CC(C)c1c(C(=O)NCc2cc(F)cc(F)c2)c2ccc(NC3CCCC3)cc2n1Cc1ccccc1
Result: 7.42

Query: API: value(readout=pIC50, system=human S1P3 receptor (Homo sapiens (Human))) for record CC(C)Oc1ccc2c(C(=O)NCc3ccc(F)c(F)c3)c(C[N+]3(C)CCCC3)n(Cc3ccccn3)c2c1.[I-]
Result: 5.12

----------
target: human S1P3 receptor (Homo sapiens (Human), UniProt Q99500); assay: Activation or block of activation of human S1P3 receptor, Ca+2 FLIPR assay; type: cell-based
Sequence (Q99500 whole entry): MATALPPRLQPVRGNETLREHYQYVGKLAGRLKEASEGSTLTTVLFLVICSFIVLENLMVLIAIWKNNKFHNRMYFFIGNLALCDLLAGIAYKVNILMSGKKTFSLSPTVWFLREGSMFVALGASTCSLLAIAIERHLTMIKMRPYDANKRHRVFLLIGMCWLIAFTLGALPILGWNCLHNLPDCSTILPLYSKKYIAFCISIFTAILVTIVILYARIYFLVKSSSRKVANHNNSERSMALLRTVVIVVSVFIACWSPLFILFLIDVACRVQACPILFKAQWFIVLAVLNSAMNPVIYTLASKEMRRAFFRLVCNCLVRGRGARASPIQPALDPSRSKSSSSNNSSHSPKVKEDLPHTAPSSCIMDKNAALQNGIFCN
Here, each record is paired with measured S1P3 (% inh) data.

Guide cases for S1P3 (% inh), answers given:
compound	reported-measurement
CC(C)c1c(C(=O)NCc2ccc(F)c(F)c2)c2ccc(OC3CCCC3)cc2n1Cc1cccnc1 [Compound 153]	5 nM (99) %
CC(C)c1c(C(=O)NCc2ccc(F)c(F)c2)c2ccc(O)cc2n1Cc1cccnc1 [Compound 151]	65 nM (98) %
CC(C)c1c(C(=O)NCc2cncc(F)c2)c2ccc(OC3CCCC3)cc2n1Cc1ccccn1 [Compound 148]	13 nM (100) %
CC(C)C(=O)Oc1ccc2c(C(=O)NCc3ccc(F)c(F)c3)c(C(C)C)n(Cc3ccccc3)c2c1 [Compound 25]	14 nM (100) %

Query: Which S1P3 (% inh) value belongs to CC(C)c1c(C(=O)NCc2ccc(F)c(F)c2)c2ccc(C3=NCCO3)cc2n1Cc1ccccc1 [Compound 70] ?
Result: 36 nM (100) %

Query: Which S1P3 (% inh) value belongs to CC(C)c1c(C(=O)NCc2ccc(F)c(F)c2)c2ccc(OC3CCCC3)cc2n1Cc1ccccc1 [Compound 16] ?
Result: 3 nM (100) 1.2 nM %

Query: Which S1P3 (% inh) value belongs to CON=C(C)c1c(C(=O)NCc2ccc(F)c(F)c2)c2ccc(OC(C)C)cc2n1Cc1ccccn1 (stereo in doubt) [Compound 111] ?
Result: 263 nM (100) %

Query: Which S1P3 (% inh) value belongs to CCOC(=O)c1ccc2c(C(=O)NCc3ccc(F)c(F)c3)c(C(C)C)n(Cc3cccnc3)c2c1 [Compound 46] ?
Result: 241 nM (100) %

Query: Which S1P3 (% inh) value belongs to CCCOc1ccc2c(C(=O)NCc3ccc(F)c(F)c3)c(C(C)C)n(Cc3ncco3)c2c1 [Compound 212] ?
Result: 393 nM (100) %

Query: Which S1P3 (% inh) value belongs to CCOC(=O)Cn1c(C(C)C)c(C(=O)NCc2ccc(F)c(F)c2)c2ccc(OC3CCCC3)cc21 [Compound 223] ?
Result: 24 nM (100) %

Query: Which S1P3 (% inh) value belongs to CC(=O)Oc1ccc2c(C(=O)NCc3ccc(F)c(F)c3)c(C(C)C)n(Cc3ccccc3)c2c1 [Compound 23] ?
Result: 14 nM (100) %

Query: Which S1P3 (% inh) value belongs to CCOC(=O)c1ccc2c(C(=O)NCc3cncc(F)c3)c(C(C)C)n(Cc3ccccc3)c2c1 [Compound 44] ?
Result: 24 nM (100) %

----------
biological target: human S1P3 receptor (Homo sapiens (Human)); assay: Activation or block of activation of human S1P3 receptor, Ca+2 FLIPR assay; assay type: cell-based; details: T24 cells stably expressing the human S1P3 receptor; FLIPR Ca+2 response; 0.61 nM to 10,000 nM; read-out: S1P3 IC50
Define the label as yes (1) when IC50 is strictly less than 20 nM and as no (0) in all remaining cases.

molecule	category-label
CC[C@H]1COC(c2ccc3c(C(=O)NCc4ccc(F)c(F)c4)c(C(C)C)n(Cc4ccccc4)c3c2)=N1 [Compound 75]	yes (1)
CC(C)c1c(C(=O)NCc2ccc(F)c(F)c2)c2ccc(/C=N/OC(C)(C)C)cc2n1Cc1ccccc1	no (0)
CC(C)c1c(C(=O)NCc2ccc(F)c(F)c2)c2ccc(OC3CCOC3=O)cc2n1Cc1ccccc1 (centres unmarked) [Compound 20]	no (0)

Query: Is the reported IC50 for Cc1cc(Cn2c(C(C)C)c(C(=O)NCc3ccc(F)c(F)c3)c3ccc(OC4CCCC4)cc32)no1 [Compound 219] strictly below 20 nM?
Result: no (0)

Query: Is the reported IC50 for CC(C)Oc1ccc2c(C(=O)NCc3ccc(F)c(F)c3)c(C(C)C)n(Cc3ncco3)c2c1 [Compound 213] strictly below 20 nM?
Result: no (0)

Query: Is the reported IC50 for CO/N=C/c1ccc2c(C(=O)NCc3ccc(F)c(F)c3)c(C(C)C)n(Cc3ccccc3)c2c1 strictly below 20 nM?
Result: no (0)

Query: Is the reported IC50 for CC(C)c1c(C(=O)NCc2ccc(F)c(F)c2)c2ccc(Oc3nccs3)cc2n1Cc1cccnc1 [Compound 152] strictly below 20 nM?
Result: yes (1)

Query: Is the reported IC50 for CC(C)Oc1ccc2c(C(=O)NCc3ccc(F)c(F)c3)c(C(C)C)n(Cc3cccnc3)c2c1 [Compound 154] strictly below 20 nM?
Result: yes (1)

----------
molecular target: human S1P3 receptor (Homo sapiens (Human)); assay: Activation or block of activation of human S1P3 receptor, Ca+2 FLIPR assay; format: cell-based
Here, each record is paired with measured pIC50 data.
# pIC50: negative log10 of molar concentration; output just the value

Guide cases for pIC50, answers given:
compound	pIC50
CCOC(=O)c1ccc2c(C(=O)NCc3cccnc3)c(C(C)C)n(Cc3ccccc3)c2c1	6.73
CCOC(=O)c1ccc2c(C(=O)NCc3cccc(F)c3)c(C(C)C)n(Cc3ccccn3)c2c1	6.76
CC(=NO)c1c(C(=O)NCc2ccc(F)c(F)c2)c2ccc(OC(C)C)cc2n1Cc1ccccn1 (stereo in doubt)	6.42
CC(C)c1c(C(=O)NCc2ccc(F)c(F)c2)c2ccc(C(=O)N3CCCC3)cc2n1Cc1ccccc1	6.77
CC(C)COC(=O)c1ccc2c(C(=O)NCc3ccc(F)c(F)c3)c(C(C)C)n(Cc3ccccc3)c2c1	7.92
CC(C)COc1ccc2c(C(=O)NCc3cccnc3)c(C(C)C)n(Cc3ccccn3)c2c1	6.91

Query: Which pIC50 value belongs to CO/N=C(\C)c1ccc2c(C(=O)NCc3ccc(F)c(F)c3)c(C(C)C)n(Cc3ccccc3)c2c1 ?
Result: 6.83

----------
biological target: human S1P3 receptor (Homo sapiens (Human)); assay: Activation or block of activation of human S1P3 receptor, Ca+2 FLIPR assay; assay type: cell-based; conditions: T24 cells stably expressing the human S1P3 receptor; value in brackets
Here, each record is paired with measured S1P3 (% inh) data.
Note: unit % is implicit; provide only the numeric part.

Guide cases for S1P3 (% inh), answers given:
molecule	S1P3 (% inh) (%)
CC(C)COc1ccc2c(C(=O)NCc3ccc(F)c(F)c3)c(C(C)C)n(Cc3ccccc3)c2c1 [Compound 13]	100
CC(C)c1c(C(=O)NCc2ccc(F)c(F)c2)c2ccc(OC3CCCC3)cc2n1Cc1ncco1 [Compound 211]	100
CC(C)C(=O)Nc1ccc2c(C(=O)NCc3ccc(F)c(F)c3)c(C(C)C)n(Cc3ccccc3)c2c1 [Compound 127]	97
CC[C@H]1COC(c2ccc3c(C(=O)NCc4ccc(F)c(F)c4)c(C(C)C)n(Cc4ccccc4)c3c2)=N1 [Compound 75]	97

Query: Which S1P3 (% inh) value belongs to CC(C)OC(=O)c1ccc2c(C(=O)NCc3ccc(F)c(F)c3)c(C(C)C)n(Cc3ccccc3)c2c1 ?
Result: 99

----------
target: human S1P3 receptor (Homo sapiens (Human), UniProt Q99500); test: Activation or block of activation of human S1P3 receptor, Ca+2 FLIPR assay; type: cell-based; conditions: T24 cells stably expressing the human S1P3 receptor; value in brackets
measure-name: S1P3 (% inh)

compound	assayed-system	reported-measurement
CCOC(=O)c1ccc2c(C(=O)NCc3cc(F)cc(F)c3)c(C(C)C)n(Cc3ccccn3)c2c1 [Compound 48]	human S1P3 receptor (Homo sapiens (Human), UniProt Q99500)	100%
CCOC(=O)c1ccc2c(C(=O)NCc3cncc(F)c3)c(C(C)C)n(Cc3ccccn3)c2c1 [Compound 49]	human S1P3 receptor (Homo sapiens (Human), UniProt Q99500)	100%

Pending compound:
Query: Which S1P3 (% inh) value belongs to CC(C)c1c(C(=O)NCc2ccc(F)c(F)c2)c2ccc(Oc3nccs3)cc2n1Cc1cccnc1 [Compound 152] ?
Result: 97%
